# inhibition values compiled below
- experimental-system: Tumor necrosis factor (Homo sapiens)
- Sequence (P01375 whole entry, the tested form may be a part): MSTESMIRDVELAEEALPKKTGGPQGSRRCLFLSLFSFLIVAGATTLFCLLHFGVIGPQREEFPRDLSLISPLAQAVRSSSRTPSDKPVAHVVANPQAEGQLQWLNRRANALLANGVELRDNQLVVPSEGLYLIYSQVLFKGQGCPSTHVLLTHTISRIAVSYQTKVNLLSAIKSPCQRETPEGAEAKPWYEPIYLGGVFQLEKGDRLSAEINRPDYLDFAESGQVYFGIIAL
- test-protocol: Inhibition of recombinant human TNFalpha binding to TNF receptor 1-ECD at 100 uM by surface plasmon resonance-based in vitro competitive binding assay
Answer in %, number only, no unit symbol.

Q: Give its inhibition value. Item: CCOc1cc(/C=C2\C(=O)Nc3ccc(Br)cc32)cc(Cl)c1O
Result: 24

Q: Give its inhibition value. Item: N#CC1=C(N)Oc2n[nH]c(-c3ccccc3)c2C1c1ccc(OCC(N)=O)cc1 (centres undefined)
Result: 20

Q: Give its inhibition value. Item: CC(=O)Oc1ccc(C)cc1N1C(=O)c2cccc([N+](=O)[O-])c2C1=O
Result: 68

Q: Give its inhibition value. Item: O=C1Sc2c(S(=O)(=O)Nc3ccc(O)cc3)cc(S(=O)(=O)Nc3ccc(O)cc3)c3cccc1c23
Result: 52
